# Tested on: A-427
# method-description: relative viability (nuclei count vs DMSO), 5 days (fraction); higher = more cells survive
# measurement-context: first compound 0.04 µM
result-type: relative viability
Just the number, please, no unit after it.

# annotated cases, reported relative viability shown
Prompt: Can you share its relative viability? I mean this compound: Clc1ccc(Nc2nnc(Cc3ccncc3)c3ccccc23)cc1 [Vatalanib] + Cc1nc(NC(=O)N2CCC[C@H]2C(N)=O)sc1-c1ccnc(C(C)(C)C(F)(F)F)c1 [Alpelisib] (partner 2 µM)
Response: 0.988

Prompt: Can you share its relative viability? I mean this compound: Clc1ccc(Nc2nnc(Cc3ccncc3)c3ccccc23)cc1 [Vatalanib] + Cc1cc(Nc2cc(N3CCN(C)CC3)nc(Sc3ccc(NC(=O)C4CC4)cc3)n2)n[nH]1 [Tozasertib] (partner 0.1 µM)
Response: 0.224

Moving on to another compound below.
Prompt: Can you share its relative viability? I mean this compound: C[C@@H]1CN(CC(=O)Nc2ccc3c(c2)Cc2cccc(-c4cc(=O)cc(N5CCOCC5)o4)c2S3)C[C@H](C)O1 + NC(=O)Nc1cc(-c2cccc(F)c2)sc1C(=O)N[C@H]1CCCNC1 [AZD7762] (partner 0.2 µM)
Response: 0.855
